Each recorded value in this set is attributed to patent US20150246947A1.

- target entity: T1, human Protein S (UniProt P07225 42-676)
- T1 chain: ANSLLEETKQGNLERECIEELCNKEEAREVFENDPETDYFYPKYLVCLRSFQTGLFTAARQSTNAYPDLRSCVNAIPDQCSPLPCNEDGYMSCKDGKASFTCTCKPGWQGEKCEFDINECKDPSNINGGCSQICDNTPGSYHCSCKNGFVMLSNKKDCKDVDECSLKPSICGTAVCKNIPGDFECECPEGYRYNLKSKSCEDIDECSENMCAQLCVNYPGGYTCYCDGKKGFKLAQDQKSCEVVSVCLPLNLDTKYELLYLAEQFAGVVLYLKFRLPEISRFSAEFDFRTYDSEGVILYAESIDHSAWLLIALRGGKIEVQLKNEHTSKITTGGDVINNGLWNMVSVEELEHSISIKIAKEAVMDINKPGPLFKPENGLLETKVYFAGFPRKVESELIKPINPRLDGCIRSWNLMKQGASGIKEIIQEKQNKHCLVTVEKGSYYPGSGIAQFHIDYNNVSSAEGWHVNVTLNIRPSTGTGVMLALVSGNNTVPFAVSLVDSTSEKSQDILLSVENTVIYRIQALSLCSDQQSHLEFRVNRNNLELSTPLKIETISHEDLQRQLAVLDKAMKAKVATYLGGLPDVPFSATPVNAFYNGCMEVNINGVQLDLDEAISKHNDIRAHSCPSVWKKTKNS
- experiment: LANCE competition
measurement type: log10 IC50 (log10 of the value in nM)
Short version: log10 scale, IC50, nM.

I have this binder here, Ac-GAHVSAGWYDYNFDLYREFT-NH2 [JBS2683] , and I need its recorded log10 IC50. 0.75

I have this binder here, Ac-EGYVSAGWYDYNTDTYYEFE-NH2 [JBS3222] , and I need its recorded log10 IC50. 0.18

I have this binder here, Ac-TAHVSAGWYDYNFDLYREFT-NH2 [JBS2680] , and I need its recorded log10 IC50. 0.78

I have this binder here, Ac-TGLVSAGWYNYNFDHYREFT-NH2 [JBS2823] , and I need its recorded log10 IC50. 1.13

I have this binder here, Ac-TAHVSAGWYDYNFDDYREFT-NH2 [JBS2679] , and I need its recorded log10 IC50. 1.48

I have this binder here, Ac-TGLVEAGWYDYNFDHYREFT-NH2 [JBS2740] , and I need its recorded log10 IC50. 1.21

I have this binder here, Ac-TGHVSAGWYDYNFDHYREFT-NH2 [JBS2512] , and I need its recorded log10 IC50. 1.33

I have this binder here, Ac-TGLVSAGWYDYNFDHYHEFT-NH2 [JBS2770] , and I need its recorded log10 IC50. 0.72

I have this binder here, Ac-TFHVSAGWYDYNFDHYREFT-NH2 [JBS2611] , and I need its recorded log10 IC50. 1.10

I have this binder here, TGLVSAGWYDYNFDHYREFTC [JBS2713] , and I need its recorded log10 IC50. 1.30

I have this binder here, Ac-TGHVSAGWYDYNKDHYREFT-NH2 [JBS2602] , and I need its recorded log10 IC50. 1.04

I have this binder here, Ac-TGKVSAGWYDYNFDHYREFT-NH2 [JBS2592] , and I need its recorded log10 IC50. 1.30

I have this binder here, Ac-GGHVSAGWYDYNFDHYREFT-NH2 [JBS2552] , and I need its recorded log10 IC50. 1.22

I have this binder here, Ac-TGLVSAGWYDYNMDHYREFT-NH2 [JBS2806] , and I need its recorded log10 IC50. 0.76

I have this binder here, Ac-TGHVSAGWYDYNFDHYSEFT-NH2 [JBS2663] , and I need its recorded log10 IC50. 1.45

I have this binder here, Ac-GGHVSAGWYDYNKDHYREFT-NH2 [JBS2676] , and I need its recorded log10 IC50. 1.06

I have this binder here, Ac-TGSVSAGWYDYNFDHYREFT-NH2 [JBS2650] , and I need its recorded log10 IC50. 1.40

I have this binder here, Ac-TGLVSAGWYDYNFDHYEEFT-NH2 [JBS2752] , and I need its recorded log10 IC50. 0.83

I have this binder here, Ac-TGHVSAGWYDYNFDHYFEFT-NH2 [JBS2625] , and I need its recorded log10 IC50. 0.82

I have this binder here, Ac-YGIVSAGWYDYNTDTYYEFY-NH2 [JBS3221] , and I need its recorded log10 IC50. -0.22

I have this binder here, Ac-TAHVSAGWYDYNFDHYREFT-NH2 [JBS2516] , and I need its recorded log10 IC50. 1.00

I have this binder here, Ac-TGFVSAGWYDYNFDHYREFT-NH2 [JBS2612] , and I need its recorded log10 IC50. 1.23

I have this binder here, Ac-TGLVSAGWYDYNFDHYWEFT-NH2 [JBS2924] , and I need its recorded log10 IC50. 0.56
